Recorded measurements of BI, one per entry
- Target Or System: PARD3 PDZ 3 (Homo sapiens, UniProt Q8TEW0)
- Construct: made in house; host or cells: E. coli
- Sequence (Q8TEW0 590-677 limits assumed): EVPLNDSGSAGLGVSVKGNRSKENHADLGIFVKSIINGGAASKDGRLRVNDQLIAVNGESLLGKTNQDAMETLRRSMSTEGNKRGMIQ
- Test Summary: Holdup assay, PARD3-3
- Assay type: binding
- Run Conditions: PDZ domain PARD3-3
*1 amine or outer side, *2 acyl side, *3 side chain or, on linkers, in order; H or OH if unused. Where a SMILES comes first, the peptide text is derived from it. The star is where a group is joined. X1 = O=C(CCCC[C@@H]1SC[C@@H]2NC(=O)N[C@@H]21)NCCCOCCOCCOCCCN*; Suc = O=C(CCC(=O)[*:2])[*:1]

>  <Compound>
CC[C@H](C)[C@H](NC(=O)[C@H](CCC(N)=O)NC(=O)[C@@H](NC(=O)[C@H](Cc1c[nH]cn1)NC(=O)[C@H](CCC(N)=O)NC(=O)[C@H](CC(=O)O)NC(=O)[C@H](CCC(=O)O)NC(=O)[C@H](CC(=O)O)NC(=O)CCC(=O)NCCCOCCOCCOCCCNC(=O)CCCC[C@@H]1SC[C@@H]2NC(=O)N[C@@H]21)[C@@H](C)O)C(=O)N[C@H](C(=O)N[C@@H](CCCNC(=N)N)C(=O)N[C@H](C(=O)O)C(C)C)[C@@H](C)O [PTEN_KR] ({X1-Suc}-DEDQHTQITRV-OH)

>  <BI>
0.044

$$$$
>  <Compound>
CC[C@H](C)[C@H](NC(=O)[C@H](CCC(N)=O)NC(=O)[C@@H](NC(=O)[C@H](Cc1c[nH]cn1)NC(=O)[C@H](CCC(N)=O)NC(=O)[C@H](CC(=O)O)NC(=O)[C@H](CCC(=O)O)NC(=O)[C@H](CC(=O)O)NC(=O)CCC(=O)NCCCOCCOCCOCCCNC(=O)CCCC[C@@H]1SC[C@@H]2NC(=O)N[C@@H]21)[C@@H](C)O)C(=O)N[C@H](C(=O)N[C@@H](CCCCNC(C)=O)C(=O)N[C@H](C(=O)O)C(C)C)[C@@H](C)O [PTEN_Ac]

>  <BI>
0.104

$$$$
>  <Compound>
CC[C@H](C)[C@H](NC(=O)[C@H](CCC(N)=O)NC(=O)[C@@H](NC(=O)[C@H](Cc1c[nH]cn1)NC(=O)[C@H](CCC(N)=O)NC(=O)[C@H](CC(=O)O)NC(=O)[C@H](CCC(=O)O)NC(=O)[C@H](CC(=O)O)NC(=O)[C@H](Cc1ccccc1)NC(=O)[C@@H]1CCCN1C(=O)CCC(=O)NCCCOCCOCCOCCCNC(=O)CCCC[C@@H]1SC[C@@H]2NC(=O)N[C@@H]21)[C@@H](C)O)C(=O)N[C@H](C(=O)N[C@@H](CCCCN)C(=O)N[C@H](C(=O)O)C(C)C)[C@@H](C)O [PTEN_13] ({X1-Suc}-PFDEDQHTQITKV-OH)

>  <BI>
0.051

$$$$
>  <Compound>
CC[C@H](C)[C@H](NC(=O)[C@H](CCC(N)=O)NC(=O)[C@@H](NC(=O)[C@H](Cc1c[nH]cn1)NC(=O)[C@H](CCC(N)=O)NC(=O)[C@H](CC(=O)O)NC(=O)[C@H](CCC(=O)O)NC(=O)[C@H](CC(=O)O)NC(=O)CCC(=O)NCCCOCCOCCOCCCNC(=O)CCCC[C@@H]1SC[C@@H]2NC(=O)N[C@@H]21)[C@@H](C)O)C(=O)N[C@H](C(=O)N[C@@H](CCCCN)C(=O)N[C@H](C(=O)O)C(C)C)[C@@H](C)O [PTEN_11]

>  <BI>
-0.078

$$$$
